System: HOP-92
Experiment: NCI tumour cell line growth inhibition, 48 h
The source made the active and inactive calls. Cut-off read from the data, not from the text of the source: active = GI50 up to about 1.1 µM and inactive = higher.
Outcome codes: active, inactive

COC(=O)C1(C(=O)OC)CC2=C(S(=O)(=O)c3ccccc3)C[C@H](C#N)[C@H]2C1 | inactive
COc1cc(NC(C)=O)ccc1C(=O)N/N=C/c1ccc(Cl)cc1Cl | inactive
O=Nc1c(-c2cccc([N+](=O)[O-])c2)nc2cnccn12 | inactive
CC(C)/C(Cl)=N\OC(=O)Nc1ccccc1F | inactive
CN(C)CCNC(=O)c1nc([N+](=O)[O-])cn1C | inactive
CCCCCCCC(=O)OCC1OC(n2cc(F)c(=O)[nH]c2=O)C(NC(=O)OCc2ccccc2)C(O)C1O (stereo unspecified) | inactive
CNc1cccnc1/C=N/N=C(/N)S | active
O=c1n(CCO)nc2n1CCCN2 | inactive
COc1cc(Nc2nc3cc(C(F)(F)F)ccc3nc2C)cc(OC)c1OC | active
COc1cc(C2C=C(c3ccccc3)Oc3cc4c(cc32)OCO4)cc(OC)c1OC (stereo unspecified) | inactive
Cn1cnc([N+](=O)[O-])c1[Se]c1ncnc2nc[nH]c12 | inactive
